Target: T1, human IL-4 (human, UniProt P05112 25-153)
T1 sequence (looked up): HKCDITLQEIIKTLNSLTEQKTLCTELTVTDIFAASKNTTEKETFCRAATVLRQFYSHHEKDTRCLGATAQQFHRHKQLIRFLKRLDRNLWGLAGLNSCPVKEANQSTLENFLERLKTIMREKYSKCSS
Assay: cell-based or functional assay
quantity_kind: CD23: Fold bioactivity relative to IL4-1285 (fold)
One number for each entry, in fold.

See these solved cases before continuing.
IL4-1358 (antibody, IgG1, V domains shown) VH: QVTLRESGPALVKPTQTLTLTCTFSGFSLSTWGEGVSWIRQPPGKGLEWLAHIYWDDDKRYNPSLKSRLTISKDTSRNQVVLTMTNMDPVDTATYYCARRETVFYWYFDVWGRGTPVTVSS VL: DIQMTQSPSSLSASVGDRVTITCKASQSVDEDGDSYMNWYQQKPGKAPKLLIYAASNLESGVPSRFSGSGSGTDFTLTISSLQPEDFATYYCQQSNEDPPTFGGGTKVEIK
5.7
IL4-1350 (antibody, IgG1, V domains shown) VH: QVTLRESGPALVKPTQTLTLTCTFSGFSLSTWGSGVSWIRQPPGKGLEWLAHIYWDDDKRYNPSLKSRLTISKDTSRNQVVLTMTNMDPVDTATYYCARRETVFYWYFDVWGRGTPVTVSS VL: DIQMTQSPSSLSASVGDRVTITCKASQSVDEDGDSYMNWYQQKPGKAPKLLIYAASNLESGVPSRFSGSGSGTDFTLTISSLQPEDFATYYCQQSNEDPPTFGGGTKVEIK
5.4
IL4-1352 (antibody, IgG1, V domains shown) VH: QVTLRESGPALVKPTQTLTLTCTFSGFSLSNWGMGVSWIRQPPGKGLEWLAHIYWDDDKRYNPSLKSRLTISKDTSRNQVVLTMTNMDPVDTATYYCARRETVFYWYFDVWGRGTPVTVSS VL: DIQMTQSPSSLSASVGDRVTITCKASQSVDEDGDSYMNWYQQKPGKAPKLLIYAASNLESGVPSRFSGSGSGTDFTLTISSLQPEDFATYYCQQSNEDPPTFGGGTKVEIK
4.9

Lab book: CD23: Fold bioactivity relative to IL4-1285 of IL4-1356 (antibody, IgG1, V domains shown) VH: QVTLRESGPALVKPTQTLTLTCTFSGFSLLTFGSGVSWIRQPPGKGLEWLAHIYWDDDKRYNPSLKSRLTISKDTSRNQVVLTMTNMDPVDTATYYCARRETVFYWYFDVWGRGTPVTVSS VL: DIQMTQSPSSLSASVGDRVTITCKASQSVDEDGDSYMNWYQQKPGKAPKLLIYAASNLESGVPSRFSGSGSGTDFTLTISSLQPEDFATYYCQQSNEDPPTFGGGTKVEIK noted as 2.1
